- system: Mu-type opioid receptor (Homo sapiens, UniProt P35372)
- Sequence (P35372 whole entry): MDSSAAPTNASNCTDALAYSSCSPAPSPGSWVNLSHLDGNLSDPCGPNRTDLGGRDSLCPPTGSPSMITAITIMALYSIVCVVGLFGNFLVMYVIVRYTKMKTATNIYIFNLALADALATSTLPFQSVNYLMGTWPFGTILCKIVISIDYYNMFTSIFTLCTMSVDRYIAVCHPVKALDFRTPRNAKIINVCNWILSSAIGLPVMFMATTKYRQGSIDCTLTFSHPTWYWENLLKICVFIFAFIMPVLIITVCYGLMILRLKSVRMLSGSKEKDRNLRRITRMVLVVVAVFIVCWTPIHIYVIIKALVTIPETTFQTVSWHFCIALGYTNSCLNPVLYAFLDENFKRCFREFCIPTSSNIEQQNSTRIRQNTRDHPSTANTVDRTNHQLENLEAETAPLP

| compound_smiles | unit_label | Ki |
| --- | --- | --- |
| N[11C](=O)c1ccc(Oc2ccc(CN3CCC[C@H]3c3cccnc3)cc2)c(Cl)c1 | nM | 25.8 |

* * *

- system: Neuronal acetylcholine receptor subunit alpha-7 (Homo sapiens, UniProt P36544)
- Sequence (P36544 whole entry): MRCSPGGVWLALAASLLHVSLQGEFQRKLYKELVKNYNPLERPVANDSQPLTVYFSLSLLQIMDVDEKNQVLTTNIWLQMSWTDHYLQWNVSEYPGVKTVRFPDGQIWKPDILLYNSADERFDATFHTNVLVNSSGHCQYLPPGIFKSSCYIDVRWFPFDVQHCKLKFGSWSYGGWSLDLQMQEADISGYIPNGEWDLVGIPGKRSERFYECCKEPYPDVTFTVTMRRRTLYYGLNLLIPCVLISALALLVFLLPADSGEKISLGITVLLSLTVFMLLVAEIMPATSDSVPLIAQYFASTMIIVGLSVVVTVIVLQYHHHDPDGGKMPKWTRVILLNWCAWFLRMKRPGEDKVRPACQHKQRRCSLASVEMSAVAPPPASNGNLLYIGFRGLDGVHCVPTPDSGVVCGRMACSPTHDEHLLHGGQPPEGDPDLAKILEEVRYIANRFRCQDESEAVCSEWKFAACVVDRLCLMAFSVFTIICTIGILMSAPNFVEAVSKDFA
- measurement_description: Binding affinity to human nACh alpha7 receptor assessed as inhibition constant
pKi: −log10 of the molar value.
quantity_kind: pKi

| compound_smiles | quantity_kind | observed |
| --- | --- | --- |
| [11CH3]c1ccc(OC(=O)N2CCN3CCC2CC3)cc1 | pKi | 7.85 |

* * *

- measurement_description: Lipophilicity, logD of compound at pH 7
- condition_label: buffer
I'd appreciate it if you could label each record using logD and these ranges: lower band (below 0.9), central band (0.9 to below 2), upper band (2 or more)

| compound | answer_label |
| --- | --- |
| [18F]CCCc1cncc(OC[C@@H]2C=CCN2)c1 | lower band |
| CC(C)C[C@H](N)[11C](=O)O | lower band |
| C[11CH2]OC(=O)c1cncn1[C@H](C)c1ccccc1 | upper band |
| FCOC(C(F)(F)F)C(F)(F)[18F] (stereo unspecified) | upper band |
| [11CH3]OCc1cccnc1N1CCN(C[C@H]2COc3ccccc3O2)CC1 [ORM-13070 C-11] | central band |
| [18F]c1ccc2cnn(N=C3NCCN3)c2c1 | lower band |
| FC(F)OC(F)C(F)(F)F (stereo unspecified) | central band |
| FC(F)([18F])C(Cl)Br (stereo unspecified) | upper band |
| [11CH3]Oc1cccc(-c2c(O)c3c(I)cc(Cl)cc3[nH]c2=O)c1 | central band |
| C[C@H](c1ccc(Cl)cc1)n1cncc1C(=O)OCC[18F] | upper band |
| N[11C](=O)c1ccc(Oc2ccc(CN3CCC[C@H]3c3cccnc3)cc2)c(Cl)c1 | upper band |
| CN(C)c1cccc2c(S(=O)(=O)N/N=C/c3ccc([18F])cc3)cccc12 | upper band |
| NC(=O)c1ccc(Oc2ccc(CN3CCC[C@H]3c3cccnc3)cc2)c([18F])c1 | upper band |
| CC(OC(F)F)C(F)(F)F (stereo unspecified) | upper band |
| [18F]c1ccc(-c2nnc(N3CCN4CCC3CC4)o2)cc1 | lower band |
| CN1CC=C[C@H]1COc1cccnc1[18F] | lower band |
| N#Cc1cc([18F])cc(C#Cc2ccccn2)c1 | upper band |
| [18F]CCCc1cncc(OC[C@@H]2CCN2)c1 | lower band |
| [11CH3]C(=O)c1ccc2c(c1)CCN(CCCCc1ccccc1)CC2O (stereo unspecified) | upper band |
| [18F]c1ccc(C2CC3CCCC2N3)cn1 (single isomer, unassigned; (-)) | lower band |
| O=S1(=O)c2cc(N3CCN4CCC3CC4)ccc2-c2cccc([18F])c21 | central band |
| COC(=O)c1cncn1[C@H](C)c1ccc([18F])cc1 | upper band |
| Cc1cn([C@H]2C[C@H]([18F])[C@@H](CO)O2)c(=O)[nH]c1=O [ALOVUDINE F-18] | lower band |
| Oc1ccc2c(c1)CCN(CCCCc1ccccc1[18F])C[C@@H]2O | upper band |

* * *

- system: Alpha-2A adrenergic receptor (Homo sapiens)
- Sequence (P08913 whole entry): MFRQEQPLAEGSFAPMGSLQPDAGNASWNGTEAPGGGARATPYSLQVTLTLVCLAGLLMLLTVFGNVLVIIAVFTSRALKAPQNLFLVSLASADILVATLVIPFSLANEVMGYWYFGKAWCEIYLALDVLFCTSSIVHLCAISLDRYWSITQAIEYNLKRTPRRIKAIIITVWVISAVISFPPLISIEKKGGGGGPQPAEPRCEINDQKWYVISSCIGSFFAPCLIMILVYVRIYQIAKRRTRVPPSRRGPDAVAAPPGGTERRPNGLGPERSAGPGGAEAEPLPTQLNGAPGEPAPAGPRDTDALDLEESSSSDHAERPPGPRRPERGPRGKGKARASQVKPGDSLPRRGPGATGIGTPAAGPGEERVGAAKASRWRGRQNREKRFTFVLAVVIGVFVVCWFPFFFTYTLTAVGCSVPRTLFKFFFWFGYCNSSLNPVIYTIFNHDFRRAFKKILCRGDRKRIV

| compound_smiles | unit_label | Kd |
| --- | --- | --- |
| [11CH3]OCc1cccnc1N1CCN(C[C@H]2COc3ccccc3O2)CC1 | nM | 109 |
